The reported numbers originate from paper PMC2756588.

tested.system: T1, Fus1, P11710
T1 sequence (P11710 432-512, looked up): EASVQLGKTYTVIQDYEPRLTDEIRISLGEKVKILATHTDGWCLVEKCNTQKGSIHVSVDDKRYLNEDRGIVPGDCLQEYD
protocol.notes: SPOT array
condition: median of control spots 1200
endpoint.label: SPOT intensity

# binder, SPOT intensity
records = [
    ("SRSKPLPLTPNSKYN", 0),
]

a = VRTRRRPPPPPIPST
b = VGFRLALKFPSRITG
c = TKRKRPARLIFYDSK
Rank the items in ascending order with respect to SPOT intensity. To answer, write out the labels according to the requested order.
a, c, b
(a: 0, c: 29, b: 430)
